Reported IC50 values for the following compounds.
System: OVCAR-4;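 further: growth inhibition of human OVCAR-4 cells, measured with a cell viability assay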
test.description: cells
Format: functional, cell-based, Homo sapiens
recorded.conditions: Homo sapiens, OVCAR-4
Description: SANGER: Inhibition of human OVCAR-4 cell growth in a cell viability assay.

Example entries begin here.
smiles_string=Cc1cc(Nc2cc(N3CCN(C)CC3)nc(Sc3ccc(NC(=O)C4CC4)cc3)n2)n[nH]1 meas_value="> 2000 nM"
smiles_string=CCC1=C[C@@H]2CN(C1)Cc1c([nH]c3ccccc13)[C@@](C(=O)OC)(c1cc3c(cc1OC)N(C)[C@H]1[C@@](O)(C(=O)OC)[C@H](OC(C)=O)[C@]4(CC)C=CCN5CC[C@]31[C@@H]54)C2 meas_value="1.75 nM"

Incoming: Requested field: IC50. Item: CN(c1ncccc1CNc1nc(Nc2ccc3c(c2)CC(=O)N3)ncc1C(F)(F)F)S(C)(=O)=O
Outgoing: > 2560 nM

Incoming: Query (compound): C=CCNC1=C2C[C@@H](C)C[C@H](OC)[C@H](O)[C@@H](C)/C=C(\C)[C@H](OC(N)=O)[C@@H](OC)/C=C\C=C(/C)C(=O)NC(=CC1=O)C2=O ; field requested: IC50
Outgoing: > 1000 nM
